- protocol-text: Pharmacokinetics of the compounds in mice
- Assay type: in vivo, BALB/c mice
- experimental-parameters: mouse; male BALB/c mice, single intravenous dose 2 mg/kg, plasma
Examples of compounds with documented C0 follow.
observable: C0 (ng/mL)

C[n+]1cc(-c2ccc(OC[C@H](O/N=C(\C(=O)N[C@@H]3C(=O)N(OS(=O)(=O)[O-])C3(C)C)c3csc(N)n3)C(=O)O)cc2)ccc1NC(=O)[C@@H](N)CCCCN [Example 4] :: 3010
CC1(C)[C@H](NC(=O)/C(=N\O[C@@H](COc2ccc(-c3cn4[n+](c3)CC(OCCCN)C4)cc2)C(=O)O)c2csc(N)n2)C(=O)N1OS(=O)(=O)[O-] (stereo partly shown) [Example 3] :: 8650
CC(CN)Nc1ccc(-c2ccc(OC[C@H](O/N=C(\C(=O)N[C@@H]3C(=O)N(OS(=O)(=O)[O-])C3(C)C)c3csc(N)n3)C(=O)O)cc2)c[n+]1C (stereo partly shown) [Compound A, reference compound] :: 5920
CC1(C)[C@H](NC(=O)/C(=N\O[C@@H](COc2ccc(C(=O)Nc3cn(CCCN)[n+](CC4CNC4)c3)cc2)C(=O)O)c2csc(N)n2)C(=O)N1OS(=O)(=O)[O-] [Example 1] :: 11500

###

- System: Pseudomonas aeruginosa
- protocol-text: In vitro antibacterial activity, minimum inhibitory concentration (MIC)
- Type: cell-based
- experimental-parameters: strain HDBPA-YK9
Note to self: MIC under 20 µg/mL means Y, ties and anything higher get N.

CC1(C)[C@H](NC(=O)/C(=N\O[C@@H](COc2ccc(NC(=O)c3cn(CCCN)[n+](CC4CNC4)c3)cc2)C(=O)O)c2csc(N)n2)C(=O)N1OS(=O)(=O)[O-] :: Y
CC1(C)[C@H](NC(=O)/C(=N\O[C@@H](COc2ccc(-c3ccc(NC(=O)[C@@H](N)CCCCN)nc3)cc2)C(=O)O)c2csc(N)n2)C(=O)N1OS(=O)(=O)O :: N
C[n+]1cc(-c2ccc(OC[C@H](O/N=C(\C(=O)N[C@@H]3C(=O)N(OS(=O)(=O)[O-])C3(C)C)c3csc(N)n3)C(=O)O)cc2)ccc1NC(=O)[C@@H](N)CO :: N
CC1(C)[C@H](NC(=O)/C(=N\O[C@@H](COc2ccc(-c3ccc(NC(=O)[C@@H](N)CO)nc3)cc2)C(=O)O)c2csc(N)n2)C(=O)N1OS(=O)(=O)O :: N
C[n+]1cc(-c2ccc(OC[C@H](O/N=C(\C(=O)N[C@@H]3C(=O)N(OS(=O)(=O)[O-])C3(C)C)c3csc(N)n3)C(=O)O)cc2)ccc1NC(=O)[C@@H](N)CCCCN :: Y
C[n+]1cc(-c2ccc(OC[C@H](O/N=C(\C(=O)N[C@@H]3C(=O)N(OS(=O)(=O)[O-])C3(C)C)c3csc(N)n3)C(=O)O)cc2)ccc1NC(=O)[C@@H](N)CCN :: Y
CC1(C)[C@H](NC(=O)/C(=N\O[C@@H](CCCOc2ccc(-c3cn(CCCN)[n+](CC4CNC4)c3)cc2)C(=O)O)c2csc(N)n2)C(=O)N1OS(=O)(=O)[O-] :: Y
CC(CN)Nc1ccc(-c2ccc(OC[C@H](O/N=C(\C(=O)N[C@@H]3C(=O)N(OS(=O)(=O)[O-])C3(C)C)c3csc(N)n3)C(=O)O)cc2)c[n+]1C (some centres unmarked) [Compound A, reference compound] :: Y

###

Measured half-life, listed per entry.
- protocol-text: Pharmacokinetics of the compounds in mice
- Assay type: in vivo, BALB/c mice
- experimental-parameters: mouse; male BALB/c mice, single intravenous dose 2 mg/kg, plasma
observable: half-life (min)

CC1(C)[C@H](NC(=O)/C(=N\O[C@@H](COc2ccc(C(=O)Nc3cn(CCCN)[n+](CC4CNC4)c3)cc2)C(=O)O)c2csc(N)n2)C(=O)N1OS(=O)(=O)[O-] [Example 1] :: 20.4
CC1(C)[C@H](NC(=O)/C(=N\O[C@@H](COc2ccc(-c3cn4[n+](c3)CC(OCCCN)C4)cc2)C(=O)O)c2csc(N)n2)C(=O)N1OS(=O)(=O)[O-] (stereo partly shown) [Example 3] :: 16.8
C[n+]1cc(-c2ccc(OC[C@H](O/N=C(\C(=O)N[C@@H]3C(=O)N(OS(=O)(=O)[O-])C3(C)C)c3csc(N)n3)C(=O)O)cc2)ccc1NC(=O)[C@@H](N)CCCCN [Example 4] :: 13.8
CC(CN)Nc1ccc(-c2ccc(OC[C@H](O/N=C(\C(=O)N[C@@H]3C(=O)N(OS(=O)(=O)[O-])C3(C)C)c3csc(N)n3)C(=O)O)cc2)c[n+]1C (stereo partly shown) [Compound A, reference compound] :: 18

###

- protocol-text: Pharmacokinetics of the compounds in mice
- Format: in vivo, BALB/c mice
- experimental-parameters: mouse; male BALB/c mice, single intravenous dose 2 mg/kg, plasma
Measured clearance, listed per entry for reference.
observable: clearance (mL/min/kg)

C[n+]1cc(-c2ccc(OC[C@H](O/N=C(\C(=O)N[C@@H]3C(=O)N(OS(=O)(=O)[O-])C3(C)C)c3csc(N)n3)C(=O)O)cc2)ccc1NC(=O)[C@@H](N)CCCCN :: 42.8
CC1(C)[C@H](NC(=O)/C(=N\O[C@@H](COc2ccc(-c3cn4[n+](c3)CC(OCCCN)C4)cc2)C(=O)O)c2csc(N)n2)C(=O)N1OS(=O)(=O)[O-] (stereo partly shown) :: 14.5
CC1(C)[C@H](NC(=O)/C(=N\O[C@@H](COc2ccc(C(=O)Nc3cn(CCCN)[n+](CC4CNC4)c3)cc2)C(=O)O)c2csc(N)n2)C(=O)N1OS(=O)(=O)[O-] :: 10.8
CC(CN)Nc1ccc(-c2ccc(OC[C@H](O/N=C(\C(=O)N[C@@H]3C(=O)N(OS(=O)(=O)[O-])C3(C)C)c3csc(N)n3)C(=O)O)cc2)c[n+]1C (stereo partly shown) [Compound A, reference compound] :: 265

###

- Tested on: Pseudomonas aeruginosa
- protocol-text: In vitro antibacterial activity, minimum inhibitory concentration (MIC)
- Assay type: cell-based
- experimental-parameters: strain HDBPA-YK9
observable: MIC (µg/mL)

CC1(C)[C@H](NC(=O)/C(=N\O[C@@H](COc2ccc(-c3cn4[n+](c3)CC(OCCCN)C4)cc2)C(=O)O)c2csc(N)n2)C(=O)N1OS(=O)(=O)[O-] (some centres unmarked) :: 16
C[n+]1cc(-c2ccc(OC[C@H](O/N=C(\C(=O)N[C@@H]3C(=O)N(OS(=O)(=O)[O-])C3(C)C)c3csc(N)n3)C(=O)O)cc2)ccc1NC(=O)[C@H](N)CCCCN :: 16
CC1(C)[C@H](NC(=O)/C(=N\O[C@@H](COc2ccc(-c3ccc4[nH]c(CN)nc4c3)cc2)C(=O)O)c2csc(N)n2)C(=O)N1OS(=O)(=O)O :: 32
CC1(C)[C@H](NC(=O)/C(=N\O[C@@H](COc2ccc(C(=O)Nc3cn(CCCN)[n+](CC4CNC4)c3)cc2)C(=O)O)c2csc(N)n2)C(=O)N1OS(=O)(=O)[O-] :: 2

###

- protocol-text: Pharmacokinetics of the compounds in mice
- Assay type: in vivo, BALB/c mice
- experimental-parameters: mouse; male BALB/c mice, single intravenous dose 2 mg/kg, plasma
- Procedure: Animals: male BALB/c mice, SPF grade, purchased from Changzhou Cavens Experimental Animal Co., Ltd.; 16-24 g, license number: SCXK (Su)2016-0010; 2 to 3 days of adaptation period were given before the experiment. […] The samples were centrifuged at 8000 rpm for 5 min. […] The content of the compound in the supernatant sample was analyzed by LC-MS/MS, and various pharmacokinetic parameters were calculated with WinNonlin software.
observable: AUC(0-t) (ng·h/mL)

CC(CN)Nc1ccc(-c2ccc(OC[C@H](O/N=C(\C(=O)N[C@@H]3C(=O)N(OS(=O)(=O)[O-])C3(C)C)c3csc(N)n3)C(=O)O)cc2)c[n+]1C (stereo partly shown) [Compound A, reference compound] :: 2140
CC1(C)[C@H](NC(=O)/C(=N\O[C@@H](COc2ccc(C(=O)Nc3cn(CCCN)[n+](CC4CNC4)c3)cc2)C(=O)O)c2csc(N)n2)C(=O)N1OS(=O)(=O)[O-] :: 3140
CC1(C)[C@H](NC(=O)/C(=N\O[C@@H](COc2ccc(-c3cn4[n+](c3)CC(OCCCN)C4)cc2)C(=O)O)c2csc(N)n2)C(=O)N1OS(=O)(=O)[O-] (stereo partly shown) :: 2300
C[n+]1cc(-c2ccc(OC[C@H](O/N=C(\C(=O)N[C@@H]3C(=O)N(OS(=O)(=O)[O-])C3(C)C)c3csc(N)n3)C(=O)O)cc2)ccc1NC(=O)[C@@H](N)CCCCN :: 751

###

- protocol-text: Pharmacokinetics of the compounds in mice
- Format: in vivo, BALB/c mice
- experimental-parameters: mouse; male BALB/c mice, single intravenous dose 2 mg/kg, plasma
Listing of entries alongside the reported AUC(0-inf).
observable: AUC(0-inf)

CC1(C)[C@H](NC(=O)/C(=N\O[C@@H](COc2ccc(-c3cn4[n+](c3)CC(OCCCN)C4)cc2)C(=O)O)c2csc(N)n2)C(=O)N1OS(=O)(=O)[O-] (stereo partly shown) :: 2310 ng·h/mL
C[n+]1cc(-c2ccc(OC[C@H](O/N=C(\C(=O)N[C@@H]3C(=O)N(OS(=O)(=O)[O-])C3(C)C)c3csc(N)n3)C(=O)O)cc2)ccc1NC(=O)[C@@H](N)CCCCN :: 813 ng·h/mL
CC(CN)Nc1ccc(-c2ccc(OC[C@H](O/N=C(\C(=O)N[C@@H]3C(=O)N(OS(=O)(=O)[O-])C3(C)C)c3csc(N)n3)C(=O)O)cc2)c[n+]1C (stereo partly shown) [Compound A, reference compound] :: 2800 ng·h/mL
CC1(C)[C@H](NC(=O)/C(=N\O[C@@H](COc2ccc(C(=O)Nc3cn(CCCN)[n+](CC4CNC4)c3)cc2)C(=O)O)c2csc(N)n2)C(=O)N1OS(=O)(=O)[O-] :: 3180 ng·h/mL
